This collection of values is drawn from patent US20260042834A1.

# System: T1, biotinylated CRH (human and mouse, not fully specified; biotinylated, position not stated)
# T1 construct: also called Biotin-CRH; biotin-labeled CRH
# T1 peptide: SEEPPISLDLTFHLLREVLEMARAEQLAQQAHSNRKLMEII
# Protocol: Octet BLI, biotinylated CRH on SA sensor
Assign Kd to each entry below.

Name the recorded Kd of the item PR302334-27 (antibody, human IgG1, kappa, V domains shown, Humanized variant of PR302334) VH: EVQLVESGGGLVQPGGSLRLSCAASGFTFSTYAMSWVRQAPGKGLEWVASIRSGGTTYYPDSVKGRFTISRDNSKNSLYLQMNSLRAEDTAVYYCTRGIDWGQGTTVTVSS VL: DIQMTQSSLSASVSLGDRVTITCKASQSVNNDVAWYQQKPGKAPRLLIYYASNRYTGVPSRFSGSGSGTDFTFTISSLQPEDLATYFCQQDYSSWTFGGGTKVEIKR in your answer. < 0.001 nM

Name the recorded Kd of the item PR301777 (antibody, human IgG1, kappa, V domains shown, Series 5; mouse variable domains with human IgG1 wildtype Fc) VH: EMKLEESGGGLVQPGGSMKLSCVASGFTFSNYWMNWVRQSPEKGLEWVAEIRLKSNNYATHYAESVKGRFTISRDDSKSGVYLQMNNLGAEDTGIYYCTVGTLVYWGQGTLVTVSA VL: DIVLTQSPASLAVSLGQRATISCRASQSVSTSTYNYMHWFQQKPGQPPKLLIKFASNLESGVPARFSGSGSGTDFTLNIHPVEEEDTATFYCQHSWEIPYTFGGGTKLEIKR in your answer. 0.00124 nM

Name the recorded Kd of the item PR006151 (antibody, human IgG1, kappa, V domains shown, PTM-removal variant of PR004290) VH: EVQLVESGGVLVQPGGSLRLSCAASGFTFSSYWMTWVRQAPGKGLEWVANIKQDSSEKYYVDSVKGRFTISRDNAKNSLFLQMNSLRAEDTAVYYCARTLIFDYWGQGTLVTVSS VL: DIVMTQSPLSLPVTPGEPASISCRSSQSLLHSTGYHSLEWYLQKPGQSPQLLIYLGSNRASGVPDRFSGSGSGTDFTLKISRVEAEDVGIYYCMQTLQTPITFGQGTRLEIKR in your answer. 0.16 nM

Name the recorded Kd of the item PR005656 (antibody, human IgG1, kappa, V domains shown, PTM-removal variant of PR004290) VH: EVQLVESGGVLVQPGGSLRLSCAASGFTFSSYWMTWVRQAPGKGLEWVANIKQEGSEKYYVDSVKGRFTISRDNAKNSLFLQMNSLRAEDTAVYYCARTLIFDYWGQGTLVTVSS VL: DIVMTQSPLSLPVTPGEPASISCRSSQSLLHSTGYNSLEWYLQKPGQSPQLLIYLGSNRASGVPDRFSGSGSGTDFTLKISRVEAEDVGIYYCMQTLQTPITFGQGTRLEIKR in your answer. 0.0627 nM

Name the recorded Kd of the item PR006146 (antibody, human IgG1, kappa, V domains shown, PTM-removal variant of PR004290) VH: EVQLVESGGVLVQPGGSLRLSCAASGFTFSSYWMTWVRQAPGKGLEWVANIKQDASEKYYVDSVKGRFTISRDNAKNSLFLQMNSLRAEDTAVYYCARTLIFDYWGQGTLVTVSS VL: DIVMTQSPLSLPVTPGEPASISCRSSQSLLHSTGYDSLEWYLQKPGQSPQLLIYLGSNRASGVPDRFSGSGSGTDFTLKISRVEAEDVGIYYCMQTLQTPITFGQGTRLEIKR in your answer. 0.109 nM

Name the recorded Kd of the item PR006153 (antibody, human IgG1, kappa, V domains shown, PTM-removal variant of PR004290) VH: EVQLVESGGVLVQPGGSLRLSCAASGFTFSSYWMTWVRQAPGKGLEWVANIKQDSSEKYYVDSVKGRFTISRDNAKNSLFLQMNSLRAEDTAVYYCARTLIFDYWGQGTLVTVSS VL: DIVMTQSPLSLPVTPGEPASISCRSSQSLLHSTGYSSLEWYLQKPGQSPQLLIYLGSNRASGVPDRFSGSGSGTDFTLKISRVEAEDVGIYYCMQTLQTPITFGQGTRLEIKR in your answer. 0.171 nM

Name the recorded Kd of the item PR303394 (antibody, human IgG1, kappa, V domains shown, also called analog of CTRND05) VH: EVQLQQSGPELVKPGVSMKISCKASGYSFTDSTMNWVKQSHGKNLEWIGLIHPDNGGTIYNQKFKGKATLTVHKSSSTAYMELLSLTSEDSAVYYCANGFAYWGQGTLVTVSA VL: DVVMTQTPLSLPVSLGDQASISCRSSQSLLHSNGNTYLHWYLQKPGQSPELLIYKVSNRFSGVPDRFSGSGSGTDFTLKISRVEAEDLGVYFCSQSTHVPLTFGAGTKLELKR in your answer. 0.0136 nM

Name the recorded Kd of the item PR302341-60 (antibody, human IgG1, kappa, V domains shown, Humanized, PTM-removed variant of PR302341) VH: QVQLVQSGAEVKKPGASVKVSCKASGYTFTDYFMKWVRQAPGQRLEWMGVINPNQGDIFYNQKFKGRVTITRDTSASTAYMELSSLRSEDTAVYYCARGTDRALFAYWGQGTLVTVSS VL: DVVMTQSPLSLPVTLGQPASISCRSGQSIVHSDANTYLEWYQQRPGQSPRLLIYKVSNRFSGVPDRFSGSGSGTDFTLKISRVEAEDLGVYYCFQGSHIPWTFGGGTKVEIKR in your answer. 0.0142 nM

Name the recorded Kd of the item PR006149 (antibody, human IgG1, kappa, V domains shown, PTM-removal variant of PR004290) VH: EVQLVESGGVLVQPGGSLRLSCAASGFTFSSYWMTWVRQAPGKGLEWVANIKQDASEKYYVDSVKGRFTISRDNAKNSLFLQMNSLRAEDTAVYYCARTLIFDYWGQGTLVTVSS VL: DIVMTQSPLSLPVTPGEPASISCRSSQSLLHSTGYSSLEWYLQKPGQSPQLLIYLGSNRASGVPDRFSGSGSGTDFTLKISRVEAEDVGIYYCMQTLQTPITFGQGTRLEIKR in your answer. 0.16 nM

Name the recorded Kd of the item PR302341-55 (antibody, human IgG1, kappa, V domains shown, Humanized, PTM-removed variant of PR302341) VH: QVQLVQSGAEVKKPGASVKVSCKASGYTFTDYFMKWVRQAPGQRLEWMGVINPNNADIFYNQKFKGRVTITRDTSASTAYMELSSLRSEDTAVYYCARGTDRALFAYWGQGTLVTVSS VL: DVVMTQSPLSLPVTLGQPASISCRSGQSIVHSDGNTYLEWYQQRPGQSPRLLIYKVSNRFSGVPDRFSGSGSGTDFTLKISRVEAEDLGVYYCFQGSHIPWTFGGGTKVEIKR in your answer. < 0.001 nM

Name the recorded Kd of the item PR006142 (antibody, human IgG1, kappa, V domains shown, PTM-removal variant of PR004290) VH: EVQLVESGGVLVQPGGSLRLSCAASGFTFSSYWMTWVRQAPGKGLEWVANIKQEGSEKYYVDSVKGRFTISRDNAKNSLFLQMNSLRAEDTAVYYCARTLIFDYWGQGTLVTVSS VL: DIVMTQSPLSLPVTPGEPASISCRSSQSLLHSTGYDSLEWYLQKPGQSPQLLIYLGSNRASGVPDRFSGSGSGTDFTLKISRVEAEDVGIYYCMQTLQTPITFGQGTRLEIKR in your answer. 0.123 nM
